Tested on: HCC-2998 colon
measurement.description: NCI tumour cell line growth inhibition, 48 h
property.label: TGI

Missing value: TGI, HCC-2998 colon, entry O=c1cc(-c2ccccc2)nc(/C=C(\O)c2ccncc2)n1-c1ccccc1 . Fill in?
> 100 µM

Next entry: Cc1ccc(-c2cc(=O)c3cc(C)c(C)c(C(=O)O)c3o2)cc1
> 100 µM

Next entry: C[C@]1(C(=O)O)N[C@H](C(=O)O)CS1
> 1000 µM

Next entry: CCN(CC)CCCC(C)Nc1c2ccc(Cl)cc2nc2cc(OC)c(OC)cc12 (stereo unspecified)
3 µM

Next entry: CCOc1ccc2nc(-c3cccc(OCC(=O)NC(C)C)c3)nc(Nc3ccc(-c4cn[nH]c4)cc3)c2c1
7.91 µM

Origin of measurements: PubChem BioAssay (NCI)
